Readings of melting point for the listed compounds
readout name: melting point

>>> data_value("CC(C)n1nc(-c2c(F)nc(N)nc2-c2ccccc2)ccc1=O")
"231 to 232.5 °C"
>>> data_value("CNc1nc(N)nc(-c2ccccc2)c1-c1ccc(=O)n(C(C)C)n1")
"268 to 270 °C"
>>> data_value("CC(C)n1nc(-c2cnc(N)nc2-c2cccc(Cl)c2)ccc1=O")
"236 to 237 °C"
>>> data_value("CC(C)n1nc(-c2c(NCc3cccnc3)nc(N)nc2-c2ccccc2)ccc1=O")
"215 to 216.5 °C"
>>> data_value("CC(C)n1nc(-c2cnc(N)nc2-c2ccccc2Cl)ccc1=O")
"227 to 228.5 °C"
>>> data_value("CC(C)n1nc(-c2c(-c3ccccc3)nc(N)[nH]c2=O)ccc1=O")
"291 to 295 °C"
>>> data_value("CC(C)n1nc(-c2cnc(N(C)C)nc2-c2ccccc2)ccc1=O")
"155 to 156 °C"
>>> data_value("CC(C)n1nc(-c2c(Nc3ccccc3)nc(N)nc2-c2ccccc2)ccc1=O")
"240 to 242 °C"
>>> data_value("CC(C)n1nc(-c2cnc(N)nc2-c2ccccc2F)ccc1=O")
"239 to 240.5 °C"
>>> data_value("CC(C)n1nc(-c2c(Nc3ccccn3)nc(N)nc2-c2ccccc2)ccc1=O")
"163 to 164 °C"
>>> data_value("CSc1nc(N)nc(-c2ccc(S(C)(=O)=O)cc2)c1-c1ccc(=O)n(C(C)C)n1")
"241 to 243 °C"
>>> data_value("CC(C)n1nc(-c2cnc(NC(=O)C3CCCCC3)nc2-c2ccccc2)ccc1=O")
"195 to 198 °C"
>>> data_value("CC(C)n1nc(-c2c(Oc3ccccc3)nc(N)nc2-c2ccccc2)ccc1=O")
"218 to 221 °C"
>>> data_value("CC(C)n1nc(-c2cnc(N(C(=O)c3ccccc3)C(=O)c3ccccc3)nc2-c2ccccc2)ccc1=O")
"121 to 125 °C"
>>> data_value("CC(C)n1nc(-c2c(-c3ccccc3)nc(N)nc2N2CCN(C)CC2)ccc1=O")
"213 to 215 °C"
>>> data_value("CC(C)n1nc(-c2c(-c3ccccc3)nc(N)nc2N(C)Cc2ccccc2)ccc1=O")
"167 to 168 °C"
>>> data_value("COCCNc1nc(N)nc(-c2ccccc2)c1-c1ccc(=O)n(C(C)C)n1")
"168 to 170 °C"
>>> data_value("CC(CO)n1nc(-c2cnc(N)nc2-c2ccccc2)ccc1=O (stereo not shown)")
"222 to 223 °C"
>>> data_value("Cn1nc(-c2c(Nc3ccccc3)nc(N)nc2-c2ccccc2)ccc1=O")
"252 to 254 °C"

# credit: patent US20050043315A1
